System: B16-F0
Assay: Cytotoxicity against mouse B16F0 cells assessed as reduction in cell viability after 24 hrs by MTT assay
Format: functional, cell-based
Conditions: B16F0, 24 h
pIC50: −log10 of the molar value.

compound	assayed-target	pIC50
CC(C)=CC[C@@H](OC(=O)C=C(C)C)C1=CC(=O)c2c(O)ccc(O)c2C1=O [DIMETHYLACRYLSHIKONIN]	B16-F0	5.29 to 5.92

----------
Tested on: WM164
Assay: Cytotoxicity against human WM164 cells harboring BRAF V600E mutant assessed as reduction in cell viability after 24 hrs by EZ4U reagent based spectrophotometric method
Type: functional
Settings: WM164, 24 h
pIC50: −log10 of the molar value.

molecule	assayed-target	pIC50
CC(C)=CC[C@@H](OC(=O)C=C(C)C)C1=CC(=O)c2c(O)ccc(O)c2C1=O [DIMETHYLACRYLSHIKONIN]	WM164	5.42

----------
Tested on: B16-F0
Assay: Cytotoxicity against mouse B16F0 cells assessed as reduction in cell viability after 48 hrs by MTT assay
Type: functional, cell-based
Settings: B16F0, 48 h
pIC50: −log10 of the molar value.

compound	pIC50
CC(C)=CC[C@@H](OC(=O)C=C(C)C)C1=CC(=O)c2c(O)ccc(O)c2C1=O [DIMETHYLACRYLSHIKONIN]	5.29 to 5.92

----------
Test: Cytotoxicity against human A375-S2 cells assessed as reduction in cell viability after 48 hrs by MTT assay
Type: functional, cell-based
Conditions: A375-S2, 48 h
pIC50: −log10 of the molar value.
result-type: pIC50

structure-string	result-type	recorded-measurement
CC(C)=CC[C@@H](OC(=O)C=C(C)C)C1=CC(=O)c2c(O)ccc(O)c2C1=O	pIC50	5.15

----------
System: MUGMel2
Assay: Cytotoxicity against human MUGMel2 cells harboring NRAS pQ61K mutant assessed as reduction in cell viability after 24 hrs by EZ4U reagent based spectrophotometric method
Format: functional
Details: MUGMel2, 24 h
result-type: IC50 (µM)

molecule	unit-name	recorded-measurement
CC(C)=CC[C@@H](OC(=O)C=C(C)C)C1=CC(=O)c2c(O)ccc(O)c2C1=O [DIMETHYLACRYLSHIKONIN]	µM	5.1

Data origin, for the record: ChEMBL document CHEMBL4602659
